Tested on: SK-HEP-1
measurement_notes: Cytotoxic effect, MTT assay, SK-HEP-1 cells
Type: cell-based
condition_details: Homo sapiens, SK-HEP1; Table 2, metabolites
The reader will find reported IC50 values listed item by item below.

**Q:** Dear colleague, I am looking for the recorded IC50 of the following compound: CC(C)(C)[C@H](c1cc(-c2cc(F)ccc2F)cn1Cc1ccccc1)N(CCCN)C(=O)CO [Reference Example R3M]
**A:** 7.62 nM

Now consider the entry below.
**Q:** Dear colleague, I am looking for the recorded IC50 of the following compound: `CC(C)(C)[C@H](c1cc(-c2cc(F)ccc2F)cn1Cc1ccccc1)N(CC[C@H](N)C(=O)NCCC(=O)N[C@H](CCC(=O)O)C(=O)O)C(=O)CO`
**A:** 19.6 nM
